Test: PAMPA permeability
measured attribute: Perm. (1 × 10^−6 cm/sec)

{"molecule": "CC1=C(C(=O)Nc2nnc(-c3cccnc3)s2)C(c2ccccc2Cl)N=C(Nc2nc3ccc(Cl)cc3o2)N1 (stereo not shown) [Compound 94]", "Perm. (1 × 10^−6 cm/sec)": "<10.3 1 × 10^−6 cm/sec"}
{"molecule": "CC1=C(C(=O)NCc2cnn(C)c2)C(c2ccc(C)cc2Cl)N=C(Nc2nc3cnccc3o2)N1 (stereo not shown) [Compound 104]", "Perm. (1 × 10^−6 cm/sec)": "127.62 1 × 10^−6 cm/sec"}
{"molecule": "CC1=C(C(=O)Nc2cc(C(=O)O)ccn2)[C@@H](c2ccccc2Cl)N=C(Nc2nc3ccc(F)cc3o2)N1 [Compound 20]", "Perm. (1 × 10^−6 cm/sec)": "<1 1 × 10^−6 cm/sec"}

Consider the record given below.
Value of measured Perm. (1 × 10^−6 cm/sec) for the entry CC1=C(C(=O)Nc2cc(C(=O)O)ccn2)C(c2ccc(C(F)(F)F)cc2Cl)N=C(Nc2nc3ccc(F)cc3o2)N1 (stereo not shown) [Compound 61] : <1 1 × 10^−6 cm/sec
